Below is a list of entries, each paired with its recorded z-score value.
Experiment: E. coli acrAB mutant growth effects, primary screen, E. coli filamentation inducers, strain DRC39, OD650, 24 h (AID 1178);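 note: growth measured as culture turbidity by optical density at 650 nm; test concentration not given here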
Settings: higher = more signal, called active from +8 up or from −8 down
In your answer, state the number alone without any accompanying words.

compound=C=CCNC(=O)[C@@H]1[C@H]2C(=O)O[C@H](c3ccccc3)[C@H](c3ccccc3)N2[C@H](c2ccc(OCCO)cc2)[C@@]12C(=O)N(C(=O)OCCOC)c1ccc(C#CC3=CCCCC3)cc12 readout_value=-0.713

Incoming: Kindly indicate its recorded z-score. Item: COC(=O)[C@@]1(Cc2ccc(F)cc2)[C@H]2c3cc(C(=O)N4CCCC4)n(CCc4c[nH]c5ccc(OC)cc45)c3C[C@H]2CN1C(=O)c1ccccc1
Outgoing: -0.137

Incoming: Kindly indicate its recorded z-score. Item: O=C1O[C@@H](c2ccccc2)[C@@H](c2ccccc2)N2[C@@H](c3ccc(O)cc3)[C@]3(C(=O)Nc4ccc(C#CCCO)cc43)[C@@H](C(=O)Nc3nc4ccccc4s3)[C@H]12
Outgoing: -0.0791

Incoming: Kindly indicate its recorded z-score. Item: Cc1c(NC(=O)/C(C#N)=C/C=C/c2ccccc2[N+](=O)[O-])c(=O)n(-c2ccccc2)n1C
Outgoing: 1.06
